Target: PI3Kβ (Homo sapiens)
Construct: purchased Millipore 14-603-K
Sequence (P42338 whole entry): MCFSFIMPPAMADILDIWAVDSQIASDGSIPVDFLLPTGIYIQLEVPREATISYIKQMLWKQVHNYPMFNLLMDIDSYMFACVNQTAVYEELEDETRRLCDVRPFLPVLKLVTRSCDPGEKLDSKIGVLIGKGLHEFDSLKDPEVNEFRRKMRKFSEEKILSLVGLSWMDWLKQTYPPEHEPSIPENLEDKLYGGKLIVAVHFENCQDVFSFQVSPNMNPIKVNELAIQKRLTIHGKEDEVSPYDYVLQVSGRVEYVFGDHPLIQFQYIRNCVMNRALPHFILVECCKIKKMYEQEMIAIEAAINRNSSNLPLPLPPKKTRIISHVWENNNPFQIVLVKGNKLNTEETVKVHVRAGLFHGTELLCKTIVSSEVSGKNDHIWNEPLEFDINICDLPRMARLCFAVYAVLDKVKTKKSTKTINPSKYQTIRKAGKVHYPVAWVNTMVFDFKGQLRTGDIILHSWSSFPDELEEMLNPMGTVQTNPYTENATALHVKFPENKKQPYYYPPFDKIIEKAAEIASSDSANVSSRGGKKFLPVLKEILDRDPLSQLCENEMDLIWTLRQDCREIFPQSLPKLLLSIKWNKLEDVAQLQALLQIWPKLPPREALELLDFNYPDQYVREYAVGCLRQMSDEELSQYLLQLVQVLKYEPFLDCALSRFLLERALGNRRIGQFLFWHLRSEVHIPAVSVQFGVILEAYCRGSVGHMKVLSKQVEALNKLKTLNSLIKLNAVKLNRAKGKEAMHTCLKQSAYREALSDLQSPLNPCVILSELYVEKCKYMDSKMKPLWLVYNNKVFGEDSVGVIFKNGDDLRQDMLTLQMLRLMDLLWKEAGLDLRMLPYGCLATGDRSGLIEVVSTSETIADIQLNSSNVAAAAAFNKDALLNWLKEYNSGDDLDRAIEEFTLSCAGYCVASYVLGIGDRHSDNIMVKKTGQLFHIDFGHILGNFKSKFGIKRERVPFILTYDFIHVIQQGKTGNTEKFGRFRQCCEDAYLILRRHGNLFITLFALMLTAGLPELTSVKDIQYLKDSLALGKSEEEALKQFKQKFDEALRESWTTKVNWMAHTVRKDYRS
Sequence (P27986 whole entry partner): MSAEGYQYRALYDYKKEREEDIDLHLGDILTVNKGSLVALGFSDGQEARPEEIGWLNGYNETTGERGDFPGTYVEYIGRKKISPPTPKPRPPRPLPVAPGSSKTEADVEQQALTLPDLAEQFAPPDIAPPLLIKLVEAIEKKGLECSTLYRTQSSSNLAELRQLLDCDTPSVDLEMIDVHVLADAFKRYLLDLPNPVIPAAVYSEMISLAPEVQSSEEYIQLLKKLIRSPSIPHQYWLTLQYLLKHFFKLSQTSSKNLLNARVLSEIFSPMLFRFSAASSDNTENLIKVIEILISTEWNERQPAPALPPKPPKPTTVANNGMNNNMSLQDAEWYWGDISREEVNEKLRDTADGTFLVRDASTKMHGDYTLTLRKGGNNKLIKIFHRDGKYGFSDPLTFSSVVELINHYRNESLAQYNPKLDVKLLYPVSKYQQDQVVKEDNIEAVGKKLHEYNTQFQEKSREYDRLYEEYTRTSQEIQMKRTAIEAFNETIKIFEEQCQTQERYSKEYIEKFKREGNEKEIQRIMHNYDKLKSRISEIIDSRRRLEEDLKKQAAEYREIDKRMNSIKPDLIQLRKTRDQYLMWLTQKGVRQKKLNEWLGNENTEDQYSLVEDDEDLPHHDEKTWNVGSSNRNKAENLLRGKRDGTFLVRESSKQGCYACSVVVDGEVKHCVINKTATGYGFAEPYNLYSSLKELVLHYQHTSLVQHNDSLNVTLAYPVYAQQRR
Test: In vitro kinase activity (LabChip EZ Reader mobility shift), PI3Kβ
Format: biochemical
Details: kinase subtype PI3Kβ (p110β)
Outcome Measure: log10(IC50) (log10 of the value in nM)

[[record]]
molecule = "N#Cc1c(N)ncnc1NCc1c(-c2ccccc2)[nH]c2c(Cl)cccc2c1=O [Example 14]"
tested_on = "PI3Kβ (Homo sapiens)"
outcome_measure = "log10(IC50)"
observed = 2.74

[[record]]
molecule = "CC(Nc1ncnc(N)c1C#N)c1c(-c2ccccc2)[nH]c2c(Cl)cccc2c1=O (centres unmarked) [Example 9]"
tested_on = "PI3Kβ (Homo sapiens)"
outcome_measure = "log10(IC50)"
observed = 2.14

[[record]]
molecule = "CC(Nc1nc(N)nc(N)c1C#N)c1c(-c2ccccc2)[nH]c2ccccc2c1=O (centres unmarked) [Example 22]"
tested_on = "PI3Kβ (Homo sapiens)"
outcome_measure = "log10(IC50)"
observed = 2.80

[[record]]
molecule = "CC(Nc1nc(N)nc(N)c1C#N)c1c(-c2ccccc2)oc2c(F)cccc2c1=O (centres unmarked) [Example 8]"
tested_on = "PI3Kβ (Homo sapiens)"
outcome_measure = "log10(IC50)"
observed = 2.59

[[record]]
molecule = "CC(Nc1nc(N)nc(N)c1C#N)c1c(-c2ccccc2)oc2ccccc2c1=O (centres unmarked) [Example 4]"
tested_on = "PI3Kβ (Homo sapiens)"
outcome_measure = "log10(IC50)"
observed = 2.74

[[record]]
molecule = "N#Cc1c(N)nc(N)nc1NCc1c(-c2ccccc2)[nH]c2c(Cl)cccc2c1=O [Example 18]"
tested_on = "PI3Kβ (Homo sapiens)"
outcome_measure = "log10(IC50)"
observed = 2.00

[[record]]
molecule = "CC(Nc1nc(N)nc(N)c1C#N)c1c(-c2ccccc2)n(C)c2c(Cl)cccc2c1=O (centres unmarked) [Example 27]"
tested_on = "PI3Kβ (Homo sapiens)"
outcome_measure = "log10(IC50)"
observed = 1.58

[[record]]
molecule = "CC(Nc1ncnc(N)c1C#N)c1c(-c2ccccc2)[nH]c2ccccc2c1=O (centres unmarked) [Example 10]"
tested_on = "PI3Kβ (Homo sapiens)"
outcome_measure = "log10(IC50)"
observed = 2.76


The reported numbers originate from patent US10077258B2.
